# PROCEDURE DETAILS: Oral bioavailability of hydrocodone conjugates in rats, LC/MS/MS
# MEASUREMENT CONTEXT: oral, 1 mg/kg dose, 1.5 Hours
Where a SMILES comes first, the peptide text is derived from it. The star is where a group is joined. X1 = COc1ccc2c3c1O[C@H]1C(O*)=CC[C@H]4[C@@H](C2)N(C)CC[C@]314
MEASURED ENDPOINT: hydrocodone plus hydromorphone concentration (ng/mL)
Form entry: value (ng/mL) — number only.

So, CC[C@H](C)[C@H](NC(=O)[C@H](Cc1ccccc1)NC(=O)[C@H](Cc1ccccc1)NC(=O)[C@H](Cc1ccc(O)cc1)NC(=O)[C@@H](N)Cc1ccc(O)cc1)C(=O)OC1=CC[C@H]2[C@H]3Cc4ccc(OC)c5c4[C@@]2(CCN3C)[C@H]1O5 [YYFFI[SEQ ID NO: 8]-HC] (H-YYFFI-X1) ? Its hydrocodone plus hydromorphone concentration was 4.3

So, CC[C@H](C)[C@H](NC(=O)[C@H](CC(=O)O)NC(=O)[C@@H](N)CC(=O)O)C(=O)OC1=CC[C@H]2[C@H]3Cc4ccc(OC)c5c4[C@@]2(CCN3C)[C@H]1O5 [DDI-HC, Asp-Asp-Ile-Hydrocodone] ? Its hydrocodone plus hydromorphone concentration was 5

So, CC[C@H](C)[C@H](NC(=O)[C@H](Cc1ccc(O)cc1)NC(=O)[C@@H](N)Cc1ccc(O)cc1)C(=O)OC1=CC[C@H]2[C@H]3Cc4ccc(OC)c5c4[C@@]2(CCN3C)[C@H]1O5 [YYI-HC, Tyr-Tyr-Ile-Hydrocodone] ? Its hydrocodone plus hydromorphone concentration was 4.3

So, COc1ccc2c3c1O[C@H]1C(OC(=O)[C@H](Cc4ccccc4)NC(=O)[C@H](Cc4ccccc4)NC(=O)[C@H](Cc4ccccc4)NC(=O)[C@H](CCC(=O)O)NC(=O)[C@@H](N)CCC(=O)O)=CC[C@H]4[C@@H](C2)N(C)CC[C@]314 [EEFFF[SEQ ID NO: 3]-HC] (H-EEFFF-X1) ? Its hydrocodone plus hydromorphone concentration was 4.1

So, CC[C@H](C)[C@H](NC(=O)[C@H](Cc1ccccc1)NC(=O)[C@H](Cc1ccccc1)NC(=O)[C@H](CCC(=O)O)NC(=O)[C@@H](N)CCC(=O)O)C(=O)OC1=CC[C@H]2[C@H]3Cc4ccc(OC)c5c4[C@@]2(CCN3C)[C@H]1O5 [EEFFI[SEQ ID NO: 5]-HC] (H-EEFFI-X1) ? Its hydrocodone plus hydromorphone concentration was 5.2
